- experiment: qHTS assay to identify small molecule agonists of the peroxisome proliferator-activated receptor delta (PPARd) signaling pathway - cell viability counter screen (AID 743211); also: nearly all actives have a fitted effect of over 55% in size
- protocol conditions: PPARd-bla HEK293H viability, CellTiter-Glo luminescence, 17 h; series mostly up to 62.6 µM
Results filed as inconclusive are left out. Activity calls are given as the source filed them. Calls follow the shape of the dose curve; as a rule, active = well fitted cell-killing curve with a large enough effect in the repeat runs; inconclusive = weak or mixed curves; inactive = no such curve, though single readings can be large or run the other way.
Return exactly one item of T for active, F for inactive

>  <molecule>
CCOC(=O)c1ccccc1C

>  <class assignment>
F

$$$$
>  <molecule>
O=c1[nH]c2ccc(S(=O)CCN3CCC(Cc4ccc(F)cc4)CC3)cc2o1 (stereo unspecified)

>  <class assignment>
F

$$$$
>  <molecule>
O=C(CCCN1CCN(c2ccc(F)cc2)CC1)NC1c2ccccc2CSc2ccccc21 (stereo unspecified)

>  <class assignment>
T

$$$$

IN: Hi, do you know how "O=C(/C=C/c1ccccc1)OCCCc1ccccc1" came out in this test?
OUT: F

IN: Input "O=C(CCCCCCC(=O)Nc1ccccc1)NO"
OUT: F

IN: Input "CO[C@@]12[C@H](COC(N)=O)C3=C(C(=O)C(C)=C(N)C3=O)N1C[C@@H]1N[C@@H]12"
OUT: F

IN: Input "CN1CCN(CCCN2c3ccccc3Sc3ccc(S(=O)(=O)N(C)C)cc32)CC1"
OUT: T

IN: Input "O=[N+]([O-])c1cccc(S(=O)(=O)NCCNS(=O)(=O)c2cccc([N+](=O)[O-])c2)c1"
OUT: F
